Reference source for all entries: patent US20240059703A1

molecular target: KRAS G12C (Homo sapiens (Human), UniProt P01116, C118A/G12C); test: 2 h coupled exchange assay; type: biochemical; details: Avg 2 h Coupled exchange IC50, 2 h compound pre-incubation, SOS-mediated nucleotide exchange
Sequence (P01116 other isoform, or with tags, fused parts or gaps G12C/C118A): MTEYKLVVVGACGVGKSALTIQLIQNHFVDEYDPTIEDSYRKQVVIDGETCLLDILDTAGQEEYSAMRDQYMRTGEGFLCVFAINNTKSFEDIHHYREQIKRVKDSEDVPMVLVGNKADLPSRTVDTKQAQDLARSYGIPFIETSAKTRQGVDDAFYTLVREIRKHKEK
# label 1 = IC50 below 300 nM (exclusive); label 0 = IC50 at/above 300 nM

compound	cat
C=CC(=O)N1CC2(CCN(c3nc4c(c(-c5cc(O)cc6cccnc56)c3C#N)C[C@H]3C[C@@H]4C3(C)C)C2)C1 (single isomer, unassigned) [Example 2-45]	label 1
C=CC(=O)N1CC2(CCN(c3cc4c(c(-c5cc(O)cc6ccccc56)c3C#N)OCCC4)C2)C1 (single isomer, unassigned) [Example 2-53]	label 0
C=CC(=O)N1CC2(CCN(c3nc4c(c(-c5cccc6cccc(C)c56)n3)CCCC4)C2)C1	label 0
C=CC(=O)N1CC2(CCN(c3cn4cc(-c5ccccc5)nc4c(-c4c(C)ccc5[nH]ncc45)c3C#N)C2)C1	label 1
C=CC(=O)N1CC2(CCN(c3nc4c(c(-c5c(C)ccc6[nH]ncc56)c3C#N)CC3CC43)C2)C1 (stereo not drawn)	label 1
C=CC(=O)N1CC2(CCN(c3nc4c(c(-c5c(C)ccc6[nH]ncc56)c3C)CCC(C)(C)C4)C2)C1 (single isomer, unassigned) [Example 2-12]	label 0
C=CC(=O)N1CC2(CCN(c3nc4c(c(-c5c(O)ccc6ccccc56)c3C#N)C[C@H]3C[C@@H]4C3)C2)C1 (single isomer, unassigned) [Example 13-36]	label 0
C=CC(=O)N1CC2(CCN(c3nc4c(c(-c5cc(Cl)cc6ccn(C)c56)c3C#N)COC(C)(C)C4)C2)C1 (single isomer, unassigned) [Example 12-9]	label 0
C=CC(=O)N1CC2(CCN(c3nc4c(c(-c5c(C)ccc6[nH]ncc56)c3C#N)CCC(C)(C)C4)C2)C1 (single isomer, unassigned) [Example 1-8]	label 1
C=CC(=O)N1CC2(CCN(c3nc4cc(F)ccc4c(-c4c(C)ccc5[nH]ncc45)c3C)[C@H]2C)C1 (single isomer, unassigned) [Example 2-61]	label 1
C=CC(=O)N1CC2(CCN(c3nc4ccccc4c(-c4c(C)c(F)cc5[nH]ncc45)c3C#N)C2)C1	label 1
